Cited source for all entries: patent US20240343803A1

What pKd was measured for each of the following?
Target: T1, human PVRIG-his (AcroBiosystems, Cat NO. PVG-H52H4) (human, UniProt Q6DKI7 41-171, limits assumed)
T1 construct: also called human PVRIG protein
T1 sequence (looked up): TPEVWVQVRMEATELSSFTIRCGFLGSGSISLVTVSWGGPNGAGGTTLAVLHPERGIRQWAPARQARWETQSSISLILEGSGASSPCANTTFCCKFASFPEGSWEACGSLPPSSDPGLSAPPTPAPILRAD
Assay: SPR (BIAcore), antibody captured on Protein A chip, human PVRIG-His analyte
Friendly reminder that pKd comes from taking -log10 of the concentration in mol/L.

Task: Look at this binder and give its reported pKd. PVRIG-A50-H1e (Fc fusion, humanized variant of PVRIG-A50; also called VH1e; not shown: constant part not restated for the humanized forms; parents are VHH-hinge-CH2-CH3 of human IgG1; detected by anti-human) EVQLVESGGGLVQPGGSLRLSCAASGFTFSYYDMSWVRQAPGKGLEWVSTINSNAGRTSYVDSVKGRFTISRDNSKNTLYLQMNSLRAEDTAVYYCVEGDPHNFGLESLSLRDFGSWGQGTMVTVSS
Result: 10.26

Task: Look at this binder and give its reported pKd. PVRIG-A118-H2 (Fc fusion, humanized variant of PVRIG-A118; also called A118.VH2; not shown: constant part not restated for the humanized forms; parents are VHH-hinge-CH2-CH3 of human IgG1; detected by anti-human) EVQLVESGGGLVQPGGSLRLSCAASETYFDLYVMGWYRQAPGKDRELVATITYTGSIKYVDSVKGRFTISRDNAKNSLYLQMNSLRAEDTAVYYCNADPSGLGRKVYWGQGTMVTVSS
Result: 9.29

Task: Look at this binder and give its reported pKd. PVRIG-A50 (Fc fusion, heavy chain antibody VHH-hinge-CH2-CH3, human IgG1 constant part; also called PVRIG-50; not shown: human IgG1 hinge-CH2-CH3) EVQLVESGGGLVQPGGSLRLSCAASGFTFSYYDMSWVRQAPGKGLEWVSTINSNGGRTSYVDSVKGRFTISRDNTKNTLYLQMNSLKPEDTAVYYCVEGDPHNFGLENLSLRDFGSWGQGTQVTVSS
Result: 10.37
